For each of the compounds below, state its GI50.
system: ACHN; experiment: NCI tumour cell line growth inhibition, 48 h
Activity calls are given as the source filed them. Cut-off read from the data, not from the text of the source: active = GI50 up to about 1.1 µM and inactive = higher.

What reported GI50 corresponds to CCCCOc1ccc(S(=O)(=O)N/C(=N\O)Nc2ccc(Cl)cc2)cc1 on ACHN?
14.9 µM (inactive)

What reported GI50 corresponds to O=C(Cc1ccccc1CCO)NCCc1ccccc1 on ACHN?
> 100 µM (inactive)

What reported GI50 corresponds to CO/N=[N+](\[O-])NC(C)C on ACHN?
> 100 µM (inactive)

What reported GI50 corresponds to O=C1c2cc3c(cc2CC1Cc1ccc2c(c1)CCC2)CCC3 (stereo unspecified) on ACHN?
48.4 µM (inactive)

What reported GI50 corresponds to O=S(=O)(C1=CC(S(=O)(=O)c2ccccc2)CN(Cc2ccccc2)C1c1cccc2ccccc12)c1ccccc1 (stereo unspecified) on ACHN?
> 69 µM (inactive)

What reported GI50 corresponds to CC12CCCC3(CC(=O)C(C)(C)C3C(=O)C1)C2 (stereo unspecified) on ACHN?
> 100 µM (inactive)

----------
tested on: IGROV-1; assay: NCI tumour cell line growth inhibition, 48 h
The source made the active and inactive calls. Cut-off read from the data, not from the text of the source: active = GI50 up to about 1.1 µM and inactive = higher.
Use one of these outcomes when replying: active, inactive

Hello, I am checking results. What call was entered for c1ccc2c(c1)Nc1cccc3c1c-2nc1cc2ccccc2cc13 ?
inactive

Hello, I am checking results. What call was entered for O=C1CSC(=S)N1/N=C/c1ccc(Cl)c([N+](=O)[O-])c1 ?
inactive

Hello, I am checking results. What call was entered for CCOC(=O)c1cn2c(n1)sc1cc(C)c(C)cc12 ?
inactive

Hello, I am checking results. What call was entered for CCOc1cc2c(cc1O)/C(=N\O)C[C@@H]1[C@@H]2CC[C@]2(C)[C@@H](O)CC[C@@H]12 ?
active

Hello, I am checking results. What call was entered for CC1CCSC(N(C(=O)N(C)c2ccccc2)c2ccccc2)=N1 (stereo unspecified) ?
inactive

Hello, I am checking results. What call was entered for COC(=O)CCC(=O)NC1=C(NCc2ccccc2)C(=O)c2ccccc2C1=O ?
inactive

----------
tested on: MOLT-4; test: NCI tumour cell line growth inhibition, 48 h
Active and inactive are the calls of the source. Cut-off read from the data, not from the text of the source: active = GI50 up to about 1.1 µM and inactive = higher.
Use one of these outcomes when replying: 1 (yes) (active), 0 (no) (inactive)

Hello, I am checking results. What call was entered for O=C1/C(=C\c2ccc(-c3ccc(Cl)cc3Cl)o2)SC2NC(COc3ccc(Cl)cc3)=NN12 (centres undefined) ?
0 (no)

Hello, I am checking results. What call was entered for COc1c(C)c(OC)c2c(c1O)[C@@H]1[C@@H]3Cc4c(OC)c(C)c(OC)c(O)c4[C@H](CNC(=O)c4cnc5ccccc5n4)N3[C@@H](C#N)[C@H](C2)N1C ?
1 (yes)

Hello, I am checking results. What call was entered for CCCNC(=O)Cn1c(-c2ccccc2)cc2ccccc21 ?
0 (no)

Hello, I am checking results. What call was entered for O=C1CSC(=S)N1/N=C/c1ccc(Cl)c([N+](=O)[O-])c1 ?
0 (no)

Hello, I am checking results. What call was entered for COP(=O)(OC)C1=c2c(C)noc2=C2C=COC2C1=O (centres undefined) ?
0 (no)

Hello, I am checking results. What call was entered for CN/C(=N\N)NS(=O)(=O)c1cc(C)c(Cl)cc1S ?
0 (no)

Hello, I am checking results. What call was entered for Sc1nnc(-c2ccnc(-c3nnc(S)[nH]3)c2)[nH]1 ?
0 (no)

Hello, I am checking results. What call was entered for O=c1cc(-c2ccccc2)oc2cc(OCCSCCCCCCCCCCSCCOc3ccc4c(=O)cc(-c5ccccc5)oc4c3)ccc12 ?
0 (no)

Hello, I am checking results. What call was entered for CCOC(=O)[C@H]1O[C@@H]1C(=O)NC(CC(C)C)C(=O)NCCC(C)C (some centres undefined) ?
0 (no)

Hello, I am checking results. What call was entered for COc1ccc(OC)c(-c2cc(C(=O)O)c3cc4ccccc4cc3n2)c1 ?
0 (no)

Hello, I am checking results. What call was entered for CCOC(=O)Cc1cnc(NC(NC(=O)CC)(C(F)(F)F)C(F)(F)F)s1 ?
0 (no)

Hello, I am checking results. What call was entered for C/C=C1/CN2CCC34c5ccccc5N(C)C23C2CC1C4(C(=O)OC)C(O)O2 (centres undefined) ?
0 (no)

Hello, I am checking results. What call was entered for O=C1/C(=C/c2ccc(O)c(CN3CCCCC3)c2)CCC/C1=C\c1ccc(O)c(CN2CCCCC2)c1 ?
0 (no)

Hello, I am checking results. What call was entered for O=C(Nc1ccc(Cl)cc1)c1cc2cc(/N=N/c3ccccc3Cl)ccc2oc1=O ?
0 (no)

Hello, I am checking results. What call was entered for O=C(O)C1Cc2c([nH]c3ccccc23)C(CCCCO)N1 (centres undefined) ?
0 (no)

Hello, I am checking results. What call was entered for COc1ccc(/C(Cl)=C(\CN(C)C)c2ccc(OC)c(OC)c2)cc1OC ?
0 (no)

Hello, I am checking results. What call was entered for COC(=O)Cc1c(-c2c(CC(=O)OC)c3ccccc3n2C2OC(COC3OC(COC(C)=O)C(OC(C)=O)C(OC(C)=O)C3OC(C)=O)C(O)C(O)C2O)[nH]c2ccccc12 (centres undefined) ?
0 (no)

Hello, I am checking results. What call was entered for COC(=O)c1ccccc1C1CN=NC12Cc1ccc(C)c(C)c1C2=O (centres undefined) ?
0 (no)

Hello, I am checking results. What call was entered for CO/N=[N+](\[O-])NC(C)C ?
0 (no)

Hello, I am checking results. What call was entered for c1ccc2c(CNCCCCCCCCNCc3cccc4ccccc34)cccc2c1 ?
0 (no)

Hello, I am checking results. What call was entered for Clc1nc(Nc2nc3ccccc3[nH]2)nc(Cl)c1-c1ccccc1 ?
0 (no)

Hello, I am checking results. What call was entered for CC12CCCC3(CC(=O)C(C)(C)C3C(=O)C1)C2 (centres undefined) ?
0 (no)

Hello, I am checking results. What call was entered for COc1ccc(-c2nc(O)c3ccccc3n2)c(OC)c1 ?
0 (no)

Hello, I am checking results. What call was entered for COC(=O)CCc1ccc2c(c1)C(=O)CC2 ?
0 (no)

Hello, I am checking results. What call was entered for CCOC(=O)C(C)(C(=O)OCC)/C(Cl)=C\Cl ?
0 (no)

Hello, I am checking results. What call was entered for O=C(O)C1CCCCC1c1c2ccc(=O)c(O)c-2oc2c(O)c(O)ccc12 (centres undefined) ?
0 (no)

Hello, I am checking results. What call was entered for COc1ccc(/C=c2/sc3n(c2=O)NC(c2ccc(Cl)cc2)NN=3)cc1 (centres undefined) ?
0 (no)

Hello, I am checking results. What call was entered for CC(/C=C/c1ccccc1)=N\NC(N)=S ?
0 (no)

Hello, I am checking results. What call was entered for C=CCCC(On1c(-c2ccc(Cl)cc2)csc1=S)c1ccccc1 (centres undefined) ?
0 (no)

----------
test system: ACHN; assay: NCI tumour cell line growth inhibition, 48 h
Active and inactive are the calls of the source. Rule as the data show it: active = GI50 up to about 1.1 µM and inactive = higher.
metric: GI50

Record request: GI50 value, item CCOC(=O)c1cn2c(n1)sc1cc(C)c(C)cc12
19.1 µM (inactive)

Record request: GI50 value, item CC(=O)NC(Cc1ccccc1)C(=S)N1CCCC1 (stereo not given)
> 100 µM (inactive)

Record request: GI50 value, item CC(C)=CCC/C(=C\CC/C(=C\CCc1ccoc1)C(=O)O)C(=O)O
> 100 µM (inactive)

Record request: GI50 value, item COC(=O)C12C3C4C5C3(C#N)C1C5(C(=O)OC)C42C(=O)N(C(C)C)C(C)C (stereo not given)
> 100 µM (inactive)

Record request: GI50 value, item NCCCC1NC(=O)/C(=C(O)/C=C/C2CCC[C@@H]2CC2SCCS2)C1=O (stereo not given in full)
> 100 µM (inactive)

Record request: GI50 value, item Cc1cc(N(CCC#N)S(=O)(=O)c2ccccc2)ccc1/C=C1\N=C(c2ccc(Cl)cc2)OC1=O
> 100 µM (inactive)

Record request: GI50 value, item CCOC(=O)C1=CN(Cc2ccccc2)C2ON=C(c3ccc(Cl)cc3)C2C1 (stereo not given)
31 µM (inactive)

Record request: GI50 value, item O=C1/C(=C\c2ccccc2)C2/C(=C\c3ccccc3)C(=O)/C(=C\c3ccccc3)C2/C1=C\c1ccccc1 (stereo not given)
2.29 µM (inactive)

Record request: GI50 value, item Cc1ccc2nc(-c3nccn3C)cc(C(=O)NC(C)CN(C)C)c2c1 (stereo not given)
60 µM (inactive)

Record request: GI50 value, item COc1ccc(NC(=O)C2=C(SC)C(=O)N=C2N)cc1
> 100 µM (inactive)

----------
tested on: SK-MEL-2; experiment: NCI tumour cell line growth inhibition, 48 h
Calls of active or inactive are those of the source. Cut-off read from the data, not from the text of the source: active = GI50 up to about 1.1 µM and inactive = higher.
Use one of these outcomes when replying: TRUE for active, FALSE for inactive

Hello, I am checking results. What call was entered for CCOc1ccc(Nc2nc(N)nc(N)c2N=O)cc1 ?
FALSE

Hello, I am checking results. What call was entered for C/C=C1/CN2CCC34c5ccccc5N(C)C23C2CC1C4(C(=O)OC)C(O)O2 (stereo not given) ?
FALSE

Hello, I am checking results. What call was entered for CNS(=O)(=O)NNS(=O)(=O)c1ccc(Br)cc1 ?
FALSE

Hello, I am checking results. What call was entered for ONc1ncnc2[nH]cnc12 ?
FALSE

Hello, I am checking results. What call was entered for C=C1CCCCCCCCCCC1[S+]([O-])c1ccccc1 (stereo not given) ?
FALSE

Hello, I am checking results. What call was entered for COc1nc(/C=N/NC(N)=S)nc(OC)n1 ?
FALSE

Hello, I am checking results. What call was entered for COc1ccc(NCc2cc(OC)c(OC)c(OC)c2)cc1 ?
TRUE

Hello, I am checking results. What call was entered for NCCCCN(CCCN)/[N+]([O-])=N\O ?
FALSE

Hello, I am checking results. What call was entered for Cc1cccc(C)c1Nc1nc(C)c(C(=O)CC(=O)C(=O)Nc2c(C(C)C)cccc2C(C)C)s1 ?
FALSE

Hello, I am checking results. What call was entered for CCN(CC)CCNc1ccc2nnn3c4ccccc4c(=O)c1c23 ?
FALSE

Where do the numbers come from? From ChEMBL document CHEMBL1201862.
